tested on: Yellow Fever Mosquito (Aedes aegypti, AEDSAE); assay: Bioassay on Yellow Fever Mosquito (YFM) larvae, 96-well plate; type: in vivo; details: about 1 day-old larvae, room temperature, 3 days, scored on mortality
reported_metric: YFM % Control (or Mortality) rating

- CC(C)(CS(C)(=O)=O)NC(=O)c1cc(NC(=O)[C@H]2[C@H](c3cc(Cl)cc(Cl)c3)C2(Cl)Cl)ccc1Cl (relative stereo): A (80-100)
- O=C(NCC(F)(F)F)c1cc(NC(=O)[C@H]2[C@H](c3ccc(Cl)c(C(F)F)c3)C2(Cl)Cl)ccc1Cl (relative stereo): A (80-100)
- C=CCONC(=O)c1cc(NC(=O)[C@H]2[C@H](c3ccc(Cl)c(Cl)c3)C2(Cl)Cl)ccc1Cl (relative stereo): A (80-100)

###

tested on: Beet Armyworm (Spodoptera exigua, LAPHEG); assay: Bioassay on Beet Armyworm (BAW), 128-well diet tray assay; assay type: in vivo; conditions: 168 h, 50 μg/cm^2 on artificial diet, second instar larvae, 25° C., five to seven days, average of eight wells, read-out: BAW % Control (or Mortality) rating
reported_metric: mortality at 50 µg/cm2

- O=C(NCC(F)(F)F)c1cc(NC(=O)[C@H]2[C@H](c3ccc(F)c(Cl)c3)C2(Cl)Cl)ccc1Cl (relative stereo) [F105]: 50 to 100%
- CN(C)CCCCNC(=O)c1cc(NC(=O)[C@H]2[C@H](c3cc(Cl)cc(Cl)c3)C2(Cl)Cl)ccc1Cl (relative stereo) [F50]: 0%
- CCNC(=O)c1cc(NC(=O)[C@H]2[C@H](c3cc(Cl)cc(Cl)c3)C2(Cl)Cl)cc(Cl)c1Cl (relative stereo) [F91]: 50 to 100%
- O=C(NCCC(F)(F)F)c1cc(NC(=O)[C@H]2[C@H](c3ccc(F)c(Cl)c3)C2(Cl)Cl)ccc1Cl (relative stereo) [F107]: 50 to 100%
- O=C(NCC(F)(F)F)c1cc(NC(=O)[C@H]2[C@H](c3cc(F)cc(F)c3)C2(Cl)Cl)ccc1Cl (relative stereo) [F121]: 50 to 100%
- O=C(NCC(F)(F)F)c1cc(NC(=O)[C@H]2[C@H](c3cc(Cl)cc(Cl)c3)C2(Cl)Cl)ccc1Cl (relative stereo) [F4]: 50 to 100%

###

test system: Green Peach Aphid (Myzus persicae, MYZUPE); test: Bioassay on Green Peach Aphid (GPA), foliar spray on cabbage seedlings; assay type: in vivo; conditions: 72 h, 200 ppm spray on infested cabbage seedlings, three days, Abbott corrected % control, read-out: GPA % Control (or Mortality) rating
Measured mortality at 200 ppm of individual entries
reported_metric: mortality at 200 ppm

* O=C(NCC(F)(F)F)c1cc(NC(=O)[C@H]2[C@H](c3cc(Cl)cc(Cl)c3)C2(Cl)Cl)ccc1Cl (relative stereo) | 80 to 100%
* O=C(NCc1ccncc1)c1cc(NC(=O)[C@H]2[C@H](c3cc(Cl)cc(Cl)c3)C2(Cl)Cl)ccc1Cl (relative stereo) | 0 to 80%
* CCCNC(=O)c1cc(NC(=O)[C@H]2[C@H](c3cc(Cl)cc(Cl)c3)C2(Cl)Cl)ccc1Cl (relative stereo) | 80 to 100%

###

Test system: Beet Armyworm (Spodoptera exigua, LAPHEG)
Test: Bioassay on Beet Armyworm (BAW), 128-well diet tray assay
Assay type: in vivo
Details: 168 h, 50 μg/cm^2 on artificial diet, second instar larvae, 25° C., five to seven days, average of eight wells, read-out: BAW % Control (or Mortality) rating
Description: Certain molecules disclosed in this document were tested against BAW and CL using procedures described in the following examples. In the reporting of the results, the “BAW & CL Rating Table” was used (See Table Section). Bioassays on BAW were conducted using a 128-well diet tray assay. […] Percent mortality was recorded for the larvae in each well; activity in the eight wells was then averaged. […]
The following molecules are shown together with reported mortality at 50 µg/cm2 values.
reported_metric: mortality at 50 µg/cm2

- CC(=O)NCCNC(=O)c1cc(NC(=O)[C@H]2[C@H](c3cc(Cl)cc(Cl)c3)C2(Cl)Cl)ccc1Cl (relative stereo): 50 to 100%
- O=C(NCC(F)F)c1cc(NC(=O)[C@H]2[C@H](c3cc(Cl)cc(Cl)c3)C2(Cl)Cl)ccc1Cl (relative stereo): 50 to 100%
- O=C(NCCc1csc2ccccc12)c1cc(NC(=O)[C@H]2[C@H](c3cc(Cl)cc(Cl)c3)C2(Cl)Cl)ccc1Cl (relative stereo): 50 to 100%
